# GI50 listing for each entry below
# Test system: OVCAR-4
# experimental-details: NCI tumour cell line growth inhibition, 48 h
Activity calls are given as the source filed them. Rule as the data show it: active = GI50 up to about 1.1 µM and inactive = higher.

Examples from the recorded data:
[[record]]
compound = "CSCSCC(CO)NC(=O)/C(C)=C\\c1c(C)[nH]c(=O)[nH]c1=O (stereo not given)"
tested_on = "OVCAR-4"
recorded_measurement = "> 250 µM (inactive)"

[[record]]
compound = "COc1ccc(/C=N/c2ccc(-c3nc4ccccc4s3)cc2)cc1OC"
tested_on = "OVCAR-4"
recorded_measurement = "34.3 µM (inactive)"


Any idea what its GI50 is? The compound is `CCCCCCCCCCn1cccc1/C=C/c1ccc(/C=C/c2cccn2CCCCCCCCCC)cc1`
> 100 µM (inactive)

Please do the same for `O=C(O)CCCCn1ccc(=O)[nH]c1=O` as well.
> 100 µM (inactive)

`On1c(-c2ccccc2)c(-c2c(-c3ccccc3)n(O)c3ccccc23)c2ccccc21` ?
52.1 µM (inactive)

Record: CC(C)(C)[Si](C)(C)Oc1ccc(C2CNC(=O)C23CCC(=O)N3Cc2ccccc2)cc1 (stereo not given)
13.7 µM (inactive)

Next record, please: `COc1cc(/C=C2\C[C@H]3[C@@H]4CCC5=CC(=O)CC[C@]5(C)[C@H]4CC[C@]3(C)C2=O)cc(OC)c1OC`
6.12 µM (inactive)

Okay, and CCCC#CC(O)(C(=O)OC1CCN(C)CC1)C1CCCCC1 (stereo not given) ?
> 100 µM (inactive)

How about `Clc1nc2n(c1/C=C/c1cccs1)CCS2` ?
64 µM (inactive)

And then CCOc1cc(NC(C)=O)ccc1C(=O)NN1C(=O)C(Oc2ccccc2)C1c1ccccc1 (stereo not given) , what is it?
> 100 µM (inactive)

Moving on to the next compound: `CC(C)(C)NC(=O)/C(=C\Sc1ccccc1)c1ccc2c(c1)OCO2`
51.3 µM (inactive)

Proceed to `NCC(=O)NC1(c2cc3ccccc3s2)CCCCC1`
50.8 µM (inactive)

What do you get for `COc1cc2ccc1OCc1cccc(n1)COc1ccc(cc1OC)/C=N\CCNCCNCC/N=C\2` ?
> 100 µM (inactive)

Also check CC(NNC(=O)c1ccncc1)c1ccc(F)cc1 (stereo not given)
> 100 µM (inactive)

What would you report for `Clc1nc(NC23CC4CC(CC(C4)C2)C3)nc(NC23CC4CC(CC(C4)C2)C3)n1` ?
83 µM (inactive)
